target: MDM2 SWIB, cleaved from the His‐GST tag, for affinity measurements (human); test: fluorescence polarisation; competition: unlabelled peptide in serial dilution displaces a FITC-labelled probe peptide from the bait domain (master mix with protein at four times the KD of the probe, 10 nM probe, 2 mM DTT); 50 mM KPO4 or NaPO4 pH 7.5; triplicates; probe for KEAP1 Kelch: FITC-NFE2L1 228-243, other probes in Dataset EV6
TEST_READOUT: pKi
Units for pKi: none; it is -log10 of a concentration expressed in mol/L.

Please give the measured pKi for this binder: THFAELWGHLDHTMFF [RNF115_(69–84) peptide, synthetic]
6.77
